Reference source for all entries: PubChem BioAssay AID1851

- Target desc: Cytochrome P450 2D6 (Homo sapiens) (UniProt P10635)
- Sequence (P10635 whole entry, looked up): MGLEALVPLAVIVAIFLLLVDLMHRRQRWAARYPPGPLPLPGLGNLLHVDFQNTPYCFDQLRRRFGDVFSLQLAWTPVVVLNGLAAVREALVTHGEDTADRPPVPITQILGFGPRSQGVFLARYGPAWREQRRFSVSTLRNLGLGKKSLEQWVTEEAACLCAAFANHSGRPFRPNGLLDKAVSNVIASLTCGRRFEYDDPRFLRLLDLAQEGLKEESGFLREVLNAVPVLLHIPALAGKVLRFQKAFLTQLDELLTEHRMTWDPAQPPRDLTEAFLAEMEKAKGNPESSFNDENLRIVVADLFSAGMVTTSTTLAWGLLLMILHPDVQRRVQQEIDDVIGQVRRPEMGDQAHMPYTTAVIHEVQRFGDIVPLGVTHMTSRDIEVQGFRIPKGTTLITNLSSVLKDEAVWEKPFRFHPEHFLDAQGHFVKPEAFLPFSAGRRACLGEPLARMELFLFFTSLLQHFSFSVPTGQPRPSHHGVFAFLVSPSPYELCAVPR
- Assay comment: Cytochrome panel assay with activity outcomes
- Measurement context: recombinant CYP, pro-luciferin dealkylation, luminescence, p450-cyp2d6; series mostly up to 57.1 µM
In all, about 16,000 compounds went through this assay and about 2,600 (16%) were called active. About 20% were inconclusive and are not listed. Calls come from the whole dose curve; as a rule, active = well fitted curve in the direction sought with a large enough effect; inconclusive = small, poorly fitted or top-dose-only effect, or effect the other way; inactive = no such curve, though single readings can be large or run the other way. Only a sample is shown.
Possible outcomes: Y (active), N (inactive)

Compound	Target desc	Class label
O=C(Nc1cccc(Br)c1)/C(=C\c1cccnc1)NC(=O)c1ccco1	Cytochrome P450 2D6 (Homo sapiens) (UniProt P10635)	N
CCOC(=O)c1c(NC(=O)Nc2ccccc2)sc(C)c1C	Cytochrome P450 2D6 (Homo sapiens) (UniProt P10635)	N
Cc1noc(C)c1-c1cncnc1Nc1ccccc1	Cytochrome P450 2D6 (Homo sapiens) (UniProt P10635)	N
Cc1ccc(Oc2cc(N3CCOCC3)nc(-c3ccccc3)n2)cc1	Cytochrome P450 2D6 (Homo sapiens) (UniProt P10635)	N
CN(C)c1ccc(-c2cc(NCc3ccccc3)ncn2)cc1	Cytochrome P450 2D6 (Homo sapiens) (UniProt P10635)	N
CCOC(=O)c1cc2c(ccn2C)n1CC(=O)N1CCCC(C)C1 (stereo not drawn)	Cytochrome P450 2D6 (Homo sapiens) (UniProt P10635)	N
CCOc1ccc(-c2nnc3n2N=C(c2ccc(OC)cc2)CS3)cc1	Cytochrome P450 2D6 (Homo sapiens) (UniProt P10635)	N
NC(N)=[N+]1CCc2ccccc2C1	Cytochrome P450 2D6 (Homo sapiens) (UniProt P10635)	N
CCOc1ccc(CC(=O)Nc2sc(Cc3ccccc3)c(C)c2C(N)=O)cc1OCC	Cytochrome P450 2D6 (Homo sapiens) (UniProt P10635)	N
N[C@H](C(=O)O)c1cccc(O)c1	Cytochrome P450 2D6 (Homo sapiens) (UniProt P10635)	N
CC(C)(C)c1ccccc1OCCN1CCCC1	Cytochrome P450 2D6 (Homo sapiens) (UniProt P10635)	Y
Cc1c(N2C(=O)CS/C2=N\N=C\c2ccc(Cl)cc2)c(=O)n(-c2ccccc2)n1C	Cytochrome P450 2D6 (Homo sapiens) (UniProt P10635)	N
O=c1cnc2cnc(Nc3ccccc3)nc2n1Cc1cccs1	Cytochrome P450 2D6 (Homo sapiens) (UniProt P10635)	N
COc1cccc(/C(O)=C2/C(=O)C(=O)N(Cc3cccnc3)C2c2ccco2)c1 (stereo not drawn)	Cytochrome P450 2D6 (Homo sapiens) (UniProt P10635)	N
CNC(=O)[C@H](C)[C@@H]1C[C@@]1(C)[C@@H](NC(=O)OCc1ccccc1)c1ccccc1	Cytochrome P450 2D6 (Homo sapiens) (UniProt P10635)	Y
Cc1ccccc1OCC(=O)OC1CCN(C)CC1	Cytochrome P450 2D6 (Homo sapiens) (UniProt P10635)	N
COC(=O)c1c(NC(C)=O)sc(Cc2ccccc2)c1C	Cytochrome P450 2D6 (Homo sapiens) (UniProt P10635)	Y
CCC(c1nnnn1CC1CCCO1)N(CCN1CCOCC1)Cc1cc2cc(C)ccc2[nH]c1=O (stereo not drawn)	Cytochrome P450 2D6 (Homo sapiens) (UniProt P10635)	N
CC(=O)NNc1cccc(Cl)n1	Cytochrome P450 2D6 (Homo sapiens) (UniProt P10635)	N
CCC(=O)NC(Nc1sc2c(c1C(=O)OC)CCCC2)(C(F)(F)F)C(F)(F)F	Cytochrome P450 2D6 (Homo sapiens) (UniProt P10635)	N
Cc1ccccc1OCCCN1CCCC1	Cytochrome P450 2D6 (Homo sapiens) (UniProt P10635)	Y
CCOc1ccc2[nH]c(=O)c(CN(CCc3ccccc3)C(=O)N3CCOCC3)cc2c1	Cytochrome P450 2D6 (Homo sapiens) (UniProt P10635)	N
O=C1COc2ccccc2CN1	Cytochrome P450 2D6 (Homo sapiens) (UniProt P10635)	N
O=C(CN(Cc1ccccc1Cl)C(=O)c1ccc(CN2CCOCC2)o1)NCC1CCCO1 (stereo not drawn)	Cytochrome P450 2D6 (Homo sapiens) (UniProt P10635)	Y
C1CCc2nnnn2CC1	Cytochrome P450 2D6 (Homo sapiens) (UniProt P10635)	N
COC(=O)c1ccccc1-c1ccc(/C=C2\C(=O)N(c3ccccc3)N=C2c2ccccc2)o1	Cytochrome P450 2D6 (Homo sapiens) (UniProt P10635)	N
Cc1ccc(-n2ncc(N(C)C)c(Cl)c2=O)cc1	Cytochrome P450 2D6 (Homo sapiens) (UniProt P10635)	N
CCOc1ccc(C2=Nn3c(nnc3-c3ccco3)SC2)cc1	Cytochrome P450 2D6 (Homo sapiens) (UniProt P10635)	N

---

- Target desc: Cytochrome P450 2D6 (Homo sapiens)
- Assay comment: Cytochrome panel assay with activity outcomes; for activity, negative = inhibition: % is set by controls: 0 for no effect and ±100 for the full control effect
- Measurement context: recombinant CYP, pro-luciferin dealkylation, luminescence, p450-cyp2d6; series mostly up to 57.1 µM
- Description: The P450 gene superfamily is involved in the metabolism and clearance of xenobiotics. This assay used various human CYP P450 isozymes to measure the dealkylation of various pro-luciferin substrates to luciferin. The luciferin is then measured by luminescence after the addition of a luciferase detection reagent. […] Inhibitors and some substrates limit the production of luciferin, and decrease measured luminescence. […] 8, Detection, 1 sec, ViewLux luminescent read […]
Out of some 16,000 compounds screened, about 2,600 (16%) were called active. About 20% were inconclusive and are not listed. The list is a sample of the results.
Measure: activity, negative = inhibition

Compound	Measure	Result
O=c1[nH][nH]c(=S)c(=O)[nH]1	activity, negative = inhibition	0.16% [at 11.4 µM] (inactive)
CC(=O)[C@H](C(=N)C#N)C(=O)Nc1ccccc1	activity, negative = inhibition	5.49% [at 11.4 µM] (inactive)
C/C(CCN1CCCc2nc(C)c(C)cc21)=N\O[C@@H](C)CN1CCCCc2nc(C)c(C)cc21	activity, negative = inhibition	-11.7% [at 11.4 µM] (inactive)

---

- Target desc: Cytochrome P450 2D6 (Homo sapiens) (UniProt P10635)
- Assay comment: Cytochrome panel assay with activity outcomes
- Measurement context: recombinant CYP, pro-luciferin dealkylation, luminescence, p450-cyp2d6; series mostly up to 57.1 µM
Hit rate of the full screen: of about 16,000 compounds, about 2,600 (16%) were called active. Not shown: some 20% with an inconclusive outcome. The call rests on the fitted dose curve; in most records, active means well fitted curve in the direction sought with a large enough effect; inconclusive means small, poorly fitted or top-dose-only effect, or effect the other way; inactive means no such curve, though single readings can be large or run the other way. The list is a sample of the results.
Possible outcomes: yes (1) = active, no (0) = inactive

Compound	Class label
O=C(COC(=O)c1cccnc1)c1ccc(Cl)c(Cl)c1	yes (1)
CCCCOC(=S)NC(=O)c1sc2ccccc2c1Cl	no (0)
CC(C)NC(=O)COC(=O)c1cc(=O)[nH]c2ccccc12	no (0)
CCn1c(SCC(=O)OC)nc2sc3c(c2c1=O)CCC3	no (0)

---

- Target desc: Cytochrome P450 2D6 (Homo sapiens)
- Assay comment: Cytochrome panel assay with activity outcomes
- Measurement context: recombinant CYP, pro-luciferin dealkylation, luminescence, p450-cyp2d6; series mostly up to 57.1 µM
Screen size: about 16,000 compounds; about 2,600 (16%) were called active. About 20% were inconclusive and are not listed. Calls follow the shape of the dose curve; as a rule, active = well fitted curve in the direction sought with a large enough effect; inconclusive = small, poorly fitted or top-dose-only effect, or effect the other way; inactive = no such curve, though single readings can be large or run the other way. Only a sample is shown.
Possible outcomes: label 1 for active, label 0 for inactive

Compound	Class label
O=C(N/N=C\c1cn(-c2ccccc2)nc1-c1ccccc1)c1ccc(Br)o1	label 0
Cc1ccc(-c2cc(C(=O)NCc3ccco3)c3ccccc3n2)s1	label 0
Cc1cnc(CNc2cc(-c3cccc(C#N)c3)ncn2)cn1	label 0
CCCCSc1nc(C)cc(NC(=S)Nc2ccc(OC)cc2)n1	label 0
Cc1ccc(-c2nnc(C)c(N3CC(C)OC(C)C3)n2)cc1 (configuration not stated)	label 0
COc1ccccc1CNc1cc(-c2cccc(C#N)c2)ncn1	label 0
COC(=O)Cc1cc(=O)n2[nH]c(C)c(-c3ccccc3)c2n1	label 0
CCCCCCCOC1(c2ccccc2)OC(=O)c2ccccc21 (configuration not stated)	label 0
COc1ccc(-n2c(=O)c(-c3cccs3)nc3cnc(Oc4ccccc4)nc32)cc1	label 0
c1cncc(-c2nc(NCc3cccs3)c3ccccc3n2)c1	label 1
C/C(Cn1nc([N+](=O)[O-])cc1C)=N\NC(=O)c1ccc(O)cc1O	label 0
Cn1c([N+](=O)[O-])cnc1COC(N)=O	label 0
c1cncc(CNc2nc(-c3ccoc3)nc3ccccc23)c1	label 1
CN(Cc1ccco1)c1nc(-c2ccccc2C(F)(F)F)nc2ccccc12	label 1
Cc1cnc(CNc2nc(-c3cccnc3)nc3ccccc23)cn1	label 0
CCC1C(=O)N=C(SCC(=O)Nc2ccc(C(=O)OC)cc2)NC1=O (configuration not stated)	label 0
CCc1ccc(-c2csc(NC(=O)C3CCCO3)c2C(=O)OC(C)C)cc1 (configuration not stated)	label 0

---

- Target desc: Cytochrome P450 2D6 (Homo sapiens) (UniProt P10635)
- Assay comment: Cytochrome panel assay with activity outcomes
- Measurement context: recombinant CYP, pro-luciferin dealkylation, luminescence, p450-cyp2d6; series mostly up to 57.1 µM
The campaign covered roughly 16,000 compounds. About 2,600 (16%) were called active. Not shown: some 20% with an inconclusive outcome. Only a sample is shown.

Compound	AC50
CN(C)c1ccnc(-c2cccc(NS(C)(=O)=O)c2)n1	inactive
NC(=O)CNC(=O)[C@@H]1CC2(CC(c3ccccc3)=NO2)CN1C(=O)c1ccc(Br)cc1 (stereo partly drawn)	inactive
COc1ccccc1CN1CCC2(CC1)CCN(S(C)(=O)=O)CC2	0.02 µM (active)
CN(Cc1ccco1)c1ccnc(-c2cccc(NS(C)(=O)=O)c2)n1	20 µM (active)
CCC(=O)NC(=S)Nc1ccc(S(=O)(=O)NC(C)=O)cc1	inactive
Cc1cc(C(C#N)c2cccc(Cl)c2)n2ncnc2n1 (stereo not drawn)	inactive
Cc1ccc(-c2nc3ccccc3s2)cc1NC(=O)c1cc(-n2cnnc2)ccc1Cl	inactive
Cc1ccc(OC(=O)c2cccc(C(=O)Oc3ccc(C)cc3)n2)cc1	inactive
CN(Cc1ccco1)c1ccnc(-c2cccnc2)n1	7.94 µM (active)
O=C(O)c1ccccc1C(=O)Nc1ccc(S(=O)(=O)Nc2nccs2)cc1	inactive
CN(Cc1ccco1)c1cc(-c2cccc(C#N)c2)ncn1	inactive
COC(=O)[C@@]1(Cc2ccc(OC)cc2)[C@@H]2C(=CC(=O)[C@H]2CC(=O)C(=O)N(C)C)CN1C(=O)c1ccccc1	inactive
C=CCN1CCN(c2nc3ccccc3nc2C#N)CC1	1.26 µM (active)
COc1ccc(-n2c(=O)c(C)nc3cnc(Nc4cccc(OC)c4)nc32)cc1	inactive
COc1ccccc1CN1CCCC2(CCN(S(C)(=O)=O)CC2)C1	0.0631 µM (active)
O=S(=O)(/N=C(/Nc1ccccn1)c1ccccc1)c1ccccc1	inactive
COc1ccc(C(=O)NN)cc1COc1ccc(Br)cc1	12.6 µM (active)
CCOc1cc(/C=N/NC(=O)c2cc(C)[nH]n2)ccc1OC(=O)c1ccc([N+](=O)[O-])cc1	inactive
COc1ccc(OC)c(NC(=O)CSCc2cnn(-c3ccccc3)c2-n2cccc2)c1	inactive
CN1CCN(c2ncc3ncc(=O)n(CCC#N)c3n2)CC1	inactive
COc1ccc(/C=C(/NC(C)=O)C(=O)O)cc1	inactive
COc1cccc(-c2cc(N(C)Cc3ccco3)ncn2)c1	15.8 µM (active)
O=C(CCNC(=O)Cn1cnc2ccccc2c1=O)NCC1COc2ccccc2O1 (stereo not drawn)	inactive
O=C(NNC(=O)c1ccccc1-n1cccc1)c1ccc(Cl)c(Cl)c1	inactive
O=C(Nc1nccs1)C1Cc2ccccc2CN1S(=O)(=O)c1ccc(F)cc1 (stereo not drawn)	12.6 µM (active)
Cc1ccccc1-c1nc(-n2ccnc2)c2ccccc2n1	15.8 µM (active)
CN(C(=O)C(Cl)Cl)c1ccc(OC(=O)c2ccco2)cc1	inactive
COc1cc(/C=N/NC(=O)c2cccnc2)ccc1OC(=O)c1ccco1	inactive
COC(=O)c1scc(C)c1NC(=O)Cc1ccccc1	inactive
COc1cccc(Cn2c(=O)c(-c3ccc(Cl)cc3)nc3cnc(N4CCN(C)CC4)nc32)c1	inactive
COc1ccc(/C=C/C(=O)NCc2cn(C)nc2C)cc1COc1ccc(Br)cc1	inactive
Cc1ccc(C(=O)c2cn(-c3ccc(F)c(Cl)c3)nn2)cc1	inactive
CS(=O)(=O)N1CCC2(CCN(Cc3nccs3)CC2)CC1	inactive
NC(=O)CN1CCOCCOCCOCCOCCOCC1	inactive
CCC(C(=O)N1CCOCC1)n1c(C(=O)OC)cc2occc21 (stereo not drawn)	inactive
CC(Oc1ccc(Cl)cc1)C(=O)/C=C/N(C)C (stereo not drawn)	inactive
COc1cccc([C@@H]2Oc3ccc(Br)cc3C(=O)[C@H]2O)c1	3.16 µM (active)
COc1ccc(C(=O)Nc2cc(C(C)=O)c(/C=C/N(C)C)oc2=O)cc1	inactive
